meta.source: PubChem BioAssay AID1963959

Test system: T-47D spheroids with HUVEC/MSC, viability
Experiment: Anticancer human tumor T-47D cell line growth inhibition [PI3K];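 note: spheroids exposed to agents for seven days before reading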
Conditions: curve of first compound; second compound 0.1 µM

| COMPOUND | MEASURED_TARGET | IC50 |
| --- | --- | --- |
| Cn1ncnc1[C@H]1c2n[nH]c(=O)c3cc(F)cc(c23)N[C@@H]1c1ccc(F)cc1 + Cc1nc(NC(=O)N2CCCC2C(N)=O)sc1-c1ccnc(C(C)(C)C(F)(F)F)c1 | T-47D spheroids with HUVEC/MSC, viability | > 0.1 µM |
| CC(C)NCC(C(=O)N1CCN(c2ncnc3c2C(C)CC3O)CC1)c1ccc(Cl)cc1 (stereo not given) + CC(Nc1ncnc2nc[nH]c12)c1cc2cccc(Cl)c2c(=O)n1-c1ccccc1 | T-47D spheroids with HUVEC/MSC, viability | > 10 µM |
| CC(C)NCC(C(=O)N1CCN(c2ncnc3c2C(C)CC3O)CC1)c1ccc(Cl)cc1 (stereo not given) + COc1c(OCCCN2CCOCC2)ccc2c3n(c(=NC(=O)c4cnc(N)nc4)nc12)CCN3 | T-47D spheroids with HUVEC/MSC, viability | < 0.0316 µM |
| Cn1nccc1Nc1nccc(-c2ccn(C(CO)c3ccc(Cl)c(F)c3)c(=O)c2)n1 (stereo not given) + CC(Nc1ccc2c(c1)OCCn1cc(N3C(=O)OCC3C(F)F)nc1-2)C(N)=O | T-47D spheroids with HUVEC/MSC, viability | > 10 µM |
| Cn1ncc(Cl)c1-c1cc(C(=O)NC(CN)Cc2cccc(F)c2)sc1Cl (stereo not given) + CC(Nc1ncnc2nc[nH]c12)c1cc2cccc(Cl)c2c(=O)n1-c1ccccc1 | T-47D spheroids with HUVEC/MSC, viability | > 10 µM |

====

Attribute: viability, T/C
System: T-47D spheroids with HUVEC/MSC, viability
Assay: Anticancer human tumor T-47D cell line growth inhibition [PI3K];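 note: spheroids exposed to agents for seven days before reading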;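 for viability, T/C: percent of DMSO vehicle control luminescence so 100% = untreated growth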
Settings: second compound 0.316 µM; first compound 0.1 µM; stronger effect = lower value

| MOLECULE | viability, T/C |
| --- | --- |
| C=CC(=O)N1CCN(c2nc(=O)n(-c3c(C)ccnc3C(C)C)c3nc(-c4c(O)cccc4F)c(F)cc23)C(C)C1 (stereo unspecified) + COc1c(OCCCN2CCOCC2)ccc2c3n(c(=NC(=O)c4cnc(N)nc4)nc12)CCN3 | 18.4% |
| CCCS(=O)(=O)Nc1ccc(F)c(C(=O)c2c[nH]c3ncc(-c4ccc(Cl)cc4)cc23)c1F + Cc1nc(NC(=O)N2CCCC2C(N)=O)sc1-c1ccnc(C(C)(C)C(F)(F)F)c1 | 93% |
| CC(C)n1nc(-c2ccc3oc(N)nc3c2)c2c(N)ncnc21 + COc1c(OCCCN2CCOCC2)ccc2c3n(c(=NC(=O)c4cnc(N)nc4)nc12)CCN3 | 0.85% |
| CC1(C)CCC(CN2CCN(c3ccc(C(=O)NS(=O)(=O)c4ccc(NCC5CCOCC5)c([N+](=O)[O-])c4)c(Oc4cnc5[nH]ccc5c4)c3)CC2)=C(c2ccc(Cl)cc2)C1 + CC(Nc1ncnc2nc[nH]c12)c1cc2cccc(Cl)c2c(=O)n1-c1ccccc1 | 101% |
| Cn1ncnc1[C@H]1c2n[nH]c(=O)c3cc(F)cc(c23)N[C@@H]1c1ccc(F)cc1 + CC(Nc1ncnc2nc[nH]c12)c1cc2cccc(Cl)c2c(=O)n1-c1ccccc1 | 92.1% |
| CC1(C)CCC(Nc2ncc(C(F)(F)F)c(-c3c[nH]c4c(P(C)(C)=O)c(C#N)ccc34)n2)CN1 (stereo unspecified) + Cc1nc(NC(=O)N2CCCC2C(N)=O)sc1-c1ccnc(C(C)(C)C(F)(F)F)c1 | 57.7% |
| C=CC(=O)N1CCN(c2nc(=O)n(-c3c(C)ccnc3C(C)C)c3nc(-c4c(O)cccc4F)c(F)cc23)C(C)C1 (stereo unspecified) + CC(Nc1ccc2c(c1)OCCn1cc(N3C(=O)OCC3C(F)F)nc1-2)C(N)=O | 73.3% |
| CC1(C)CCC(CN2CCN(c3ccc(C(=O)NS(=O)(=O)c4ccc(NCC5CCOCC5)c([N+](=O)[O-])c4)c(Oc4cnc5[nH]ccc5c4)c3)CC2)=C(c2ccc(Cl)cc2)C1 + COc1c(OCCCN2CCOCC2)ccc2c3n(c(=NC(=O)c4cnc(N)nc4)nc12)CCN3 | 22.3% |
| CC(C)NCC(C(=O)N1CCN(c2ncnc3c2C(C)CC3O)CC1)c1ccc(Cl)cc1 (stereo unspecified) + Cc1nc(NC(=O)N2CCCC2C(N)=O)sc1-c1ccnc(C(C)(C)C(F)(F)F)c1 | 87.8% |
| C#Cc1c(F)ccc2cc(O)cc(-c3ncc4c(N5CC6CCC(C5)N6)nc(OCC56CCCN5CC(F)C6)nc4c3F)c12 (stereo unspecified) + COc1c(OCCCN2CCOCC2)ccc2c3n(c(=NC(=O)c4cnc(N)nc4)nc12)CCN3 | 14.5% |
| CC(Cn1ccc(-c2ccc(C#N)c(Cl)c2)n1)NC(=O)c1cc(C(C)O)[nH]n1 (stereo unspecified) + CC(Nc1ncnc2nc[nH]c12)c1cc2cccc(Cl)c2c(=O)n1-c1ccccc1 | 107% |
| CC(=O)c1c(C)c2cnc(Nc3ccc(N4CCNCC4)cn3)nc2n(C2CCCC2)c1=O + CC(Nc1ccc2c(c1)OCCn1cc(N3C(=O)OCC3C(F)F)nc1-2)C(N)=O | 60.1% |
| Cn1nccc1Nc1nccc(-c2ccn(C(CO)c3ccc(Cl)c(F)c3)c(=O)c2)n1 (stereo unspecified) + CC(Nc1ncnc2nc[nH]c12)c1cc2cccc(Cl)c2c(=O)n1-c1ccccc1 | 96.7% |
| C[C@@H](NC(=O)c1ncnc(N)c1Cl)c1ncc(C(=O)Nc2cc(C(F)(F)F)c(Cl)cn2)s1 + COc1c(OCCCN2CCOCC2)ccc2c3n(c(=NC(=O)c4cnc(N)nc4)nc12)CCN3 | 12.6% |
| CC(Cn1ccc(-c2ccc(C#N)c(Cl)c2)n1)NC(=O)c1cc(C(C)O)[nH]n1 (stereo unspecified) + CC(Nc1ccc2c(c1)OCCn1cc(N3C(=O)OCC3C(F)F)nc1-2)C(N)=O | 65.7% |
| CC(=O)c1c(C)c2cnc(Nc3ccc(N4CCNCC4)cn3)nc2n(C2CCCC2)c1=O + CC(Nc1ncnc2nc[nH]c12)c1cc2cccc(Cl)c2c(=O)n1-c1ccccc1 | 84% |
| CCN1CCN(Cc2ccc(Nc3ncc(F)c(-c4cc(F)c5nc(C)n(C(C)C)c5c4)n3)nc2)CC1 + Cc1nc(NC(=O)N2CCCC2C(N)=O)sc1-c1ccnc(C(C)(C)C(F)(F)F)c1 | 67% |
| Cn1nccc1Nc1nccc(-c2ccn(C(CO)c3ccc(Cl)c(F)c3)c(=O)c2)n1 (stereo unspecified) + CC(Nc1ccc2c(c1)OCCn1cc(N3C(=O)OCC3C(F)F)nc1-2)C(N)=O | 71.3% |
| CCCS(=O)(=O)Nc1ccc(F)c(C(=O)c2c[nH]c3ncc(-c4ccc(Cl)cc4)cc23)c1F + CC(Nc1ccc2c(c1)OCCn1cc(N3C(=O)OCC3C(F)F)nc1-2)C(N)=O | 79.3% |
| CCN1CCN(Cc2ccc(Nc3ncc(F)c(-c4cc(F)c5nc(C)n(C(C)C)c5c4)n3)nc2)CC1 + CC(Nc1ccc2c(c1)OCCn1cc(N3C(=O)OCC3C(F)F)nc1-2)C(N)=O | 48.8% |
| CCN1CCN(Cc2ccc(Nc3ncc(F)c(-c4cc(F)c5nc(C)n(C(C)C)c5c4)n3)nc2)CC1 + COc1c(OCCCN2CCOCC2)ccc2c3n(c(=NC(=O)c4cnc(N)nc4)nc12)CCN3 | 16.3% |
